// provenance: patent US20060228349A1

TEST TARGET: T1, biotin-Aβ1-20 (biotin (position not given))
T1 peptide: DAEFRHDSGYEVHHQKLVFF
EXPERIMENTAL DETAILS: BIACORE, biotin-Aβ1-20 as antigen; column Fab
The entries below are paired with their reported pKd.
In simple prose, pKd is minus the logarithm base ten of a concentration in moles per litre.

Worked cases, pKd given:
20C2-18A Fab fragment (clone SJ-p1-9M) (Fab, V domains shown) VH: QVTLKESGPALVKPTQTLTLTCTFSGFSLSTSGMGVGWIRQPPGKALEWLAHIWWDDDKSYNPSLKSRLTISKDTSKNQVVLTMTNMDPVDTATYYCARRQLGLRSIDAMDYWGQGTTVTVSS VL: DVVMTQSPLSLPVTPGEPASISCRSSQSILHSNGNTYLEWYLQKPGQSPQLLIYKVSNRFSGVPDRFSGSGSGTDFTLKISRVEAEDVGVYYCMQSSFVPLTFGQGTKLEIKR ... 6.90
20C2-5A Fab fragment (clone SJ-p2-1F) (Fab, V domains shown) VH: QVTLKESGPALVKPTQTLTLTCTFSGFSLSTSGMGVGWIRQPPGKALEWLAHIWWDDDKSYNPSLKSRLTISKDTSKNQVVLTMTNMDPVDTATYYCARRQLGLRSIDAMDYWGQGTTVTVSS VL: DVVMTQSPLSLPVTPGEPASISCRSSQSILHSNGNTYLEWYLQKPGQSPQLLIYKVSNRFSGVPDRFSGSGSGTDFTLKISRVEAEDVGVYYCFQSSFVPLTFGQGTKLEIKR ... 7.39

From here, focus on the item given below.
Ask: # query: pKd of entry 20C2-7A Fab fragment (clone SJ-p2-27) (Fab, V domains shown) VH: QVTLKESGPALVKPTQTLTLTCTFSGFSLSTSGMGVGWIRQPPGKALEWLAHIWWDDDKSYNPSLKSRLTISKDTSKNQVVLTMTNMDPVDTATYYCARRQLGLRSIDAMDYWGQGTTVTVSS VL: DVVMTQSPLSLPVTPGEPASISCRSSQSILHSNGNTYLEWYLQKPGQSPQLLIYKVSNRFSGVPDRFSGSGSGTDFTLKISRVEAEDVGVYYCLNSTTVPLTFGQGTKLEIKR
Reply: 6.89
